Record form. Attribute: viability, T/C. Fill in for each entry.
Tested on: 435261-313-R-J1-PDC tumor spheroid viability
assay info: Anticancer human tumor 435261-313-R-J1-PDC patient-derived colon adenocarcinoma cell line growth inhibition [PI3K]
setup conditions: second compound 0.01 µM; first compound 10 µM; active compounds read low; spheroids with HUVEC and MSC

molecule	viability, T/C
C[C@@H](NC(=O)c1ncnc(N)c1Cl)c1ncc(C(=O)Nc2cc(C(F)(F)F)c(Cl)cn2)s1 + COc1c(OCCCN2CCOCC2)ccc2c3n(c(=NC(=O)c4cnc(N)nc4)nc12)CCN3	53.2%

Now let's try a different one.
Incoming: Report measured viability, T/C; entry is CC1(C)CCC(CN2CCN(c3ccc(C(=O)NS(=O)(=O)c4ccc(NCC5CCOCC5)c([N+](=O)[O-])c4)c(Oc4cnc5[nH]ccc5c4)c3)CC2)=C(c2ccc(Cl)cc2)C1 + COc1c(OCCCN2CCOCC2)ccc2c3n(c(=NC(=O)c4cnc(N)nc4)nc12)CCN3
Outgoing: 10%

###

System: 435261-313-R-J1-PDC tumor spheroid viability
assay info: Anticancer human tumor 435261-313-R-J1-PDC cell line growth inhibition [PI3K];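 further: spheroids exposed to compounds for 7 days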
setup conditions: second compound 0.01 µM; first compound 0.00316 µM; active compounds read low; spheroids with HUVEC and MSC
Could you mark each record label 1 if its viability, T/C falls strictly under 40%, and label 0 if it equals or exceeds it?

Solved cases (5 shown):
compound	group label
CCN1CCN(Cc2ccc(Nc3ncc(F)c(-c4cc(F)c5nc(C)n(C(C)C)c5c4)n3)nc2)CC1 + CC(Nc1ccc2c(c1)OCCn1cc(N3C(=O)OCC3C(F)F)nc1-2)C(N)=O	label 0
Cn1ncnc1[C@H]1c2n[nH]c(=O)c3cc(F)cc(c23)N[C@@H]1c1ccc(F)cc1 + COc1c(OCCCN2CCOCC2)ccc2c3n(c(=NC(=O)c4cnc(N)nc4)nc12)CCN3	label 1
Cn1ncnc1[C@H]1c2n[nH]c(=O)c3cc(F)cc(c23)N[C@@H]1c1ccc(F)cc1 + CC(Nc1ccc2c(c1)OCCn1cc(N3C(=O)OCC3C(F)F)nc1-2)C(N)=O	label 0
CC(=O)c1c(C)c2cnc(Nc3ccc(N4CCNCC4)cn3)nc2n(C2CCCC2)c1=O + CC(Nc1ccc2c(c1)OCCn1cc(N3C(=O)OCC3C(F)F)nc1-2)C(N)=O	label 0
CCN1CCN(Cc2ccc(Nc3ncc(F)c(-c4cc(F)c5nc(C)n(C(C)C)c5c4)n3)nc2)CC1 + COc1c(OCCCN2CCOCC2)ccc2c3n(c(=NC(=O)c4cnc(N)nc4)nc12)CCN3	label 0

Consider the additional compound presented here.
Incoming: Determine if CC(C)n1nc(-c2ccc3oc(N)nc3c2)c2c(N)ncnc21 + COc1c(OCCCN2CCOCC2)ccc2c3n(c(=NC(=O)c4cnc(N)nc4)nc12)CCN3 shows viability, T/C strictly lower than 40%.
Outgoing: label 0

###

Tested on: 435261-313-R-J1-PDC tumor spheroid viability
assay info: Anticancer human tumor 435261-313-R-J1-PDC cell line growth inhibition [PI3K];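 further: spheroids exposed to compounds for 7 days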
setup conditions: second compound 0.0316 µM; first compound 0.0316 µM; active compounds read low; spheroids with HUVEC and MSC
Threshold check on viability, T/C: strictly below 60% is True; on or above 60% is False.

Some entries whose results are on file:
compound	group label
C=CC(=O)N1CCN(c2nc(=O)n(-c3c(C)ccnc3C(C)C)c3nc(-c4c(O)cccc4F)c(F)cc23)C(C)C1 (stereo not given) + COc1c(OCCCN2CCOCC2)ccc2c3n(c(=NC(=O)c4cnc(N)nc4)nc12)CCN3	True
Cn1ncnc1[C@H]1c2n[nH]c(=O)c3cc(F)cc(c23)N[C@@H]1c1ccc(F)cc1 + CC(Nc1ccc2c(c1)OCCn1cc(N3C(=O)OCC3C(F)F)nc1-2)C(N)=O	True
CC(C)NCC(C(=O)N1CCN(c2ncnc3c2C(C)CC3O)CC1)c1ccc(Cl)cc1 (stereo not given) + CC(Nc1ccc2c(c1)OCCn1cc(N3C(=O)OCC3C(F)F)nc1-2)C(N)=O	False
CC(Cn1ccc(-c2ccc(C#N)c(Cl)c2)n1)NC(=O)c1cc(C(C)O)[nH]n1 (stereo not given) + CC(Nc1ncnc2nc[nH]c12)c1cc2cccc(Cl)c2c(=O)n1-c1ccccc1	False

Here is the next item to consider.
Incoming: Decide: viability, T/C of CCN1CCN(Cc2ccc(Nc3ncc(F)c(-c4cc(F)c5nc(C)n(C(C)C)c5c4)n3)nc2)CC1 + COc1c(OCCCN2CCOCC2)ccc2c3n(c(=NC(=O)c4cnc(N)nc4)nc12)CCN3 strictly below 60%?
Outgoing: True

Data provenance is PubChem BioAssay AID1963976.
